experiment: Tmax in rat brain; assay type: ADME, tissue-based
RECORDED ENDPOINT: Tmax (min)
Lab book: enter the figure in min, no units written.

Find the measured Tmax of CN(C)C(=O)N[C@H]1CC[C@H](CCN2CCN(c3cccc(Cl)c3Cl)CC2)CC1.Cl [CARIPRAZINE HYDROCHLORIDE] and report it.
30

###

assay: Binding affinity to human dopamine D4.2 receptor
RECORDED ENDPOINT: IC50

Find the measured IC50 of CN(C)C(=O)N[C@H]1CC[C@H](CCN2CCN(c3cccc(Cl)c3Cl)CC2)CC1.Cl [CARIPRAZINE HYDROCHLORIDE] and report it.
> 1 µM
